IC50 by entry:
target: autotaxin (ATX) (Homo sapiens, UniProt Q13822); construct: conditioned medium from the human melanoma cell line, MDA-MB-4355, which endogenously expresses autotaxin; serum-free conditioned medium, concentrated 20-fold; assay: Native Autotaxin Choline Release Assay; settings: autotaxin in conditioned medium from human melanoma cell line; choline released from LPC; read-out: MDA-MB-435S Assay IC50

Solved entries (count: 5):
molecule	result
Cc1c(Sc2cccc(C(=O)O)c2)c2ccc(Cl)cc2n1Cc1ccc2ccccc2c1 [Compound 1-20]	> 1000 nM
Cc1c(Sc2cccc(B(O)O)c2)c2ccc(Cl)cc2n1-c1cccnc1 [Compound 2-12]	> 1000 nM
Cc1c(Sc2cccc(C(=O)O)c2)c2ccc(-c3cccnc3)cc2n1Cc1ccccc1 [Compound 1-12]	> 1000 nM
CCn1cc(-n2c(C)c(Sc3ccc(C)c(C(=O)O)c3)c3ccc(Cl)cc32)cn1 [Compound 1-132]	< 300 nM
Cc1c(Sc2cccc(C(=O)O)c2)c2ccc(Cl)cc2n1-c1cnn(Cc2ccccc2)c1 [Compound 1-59]	< 300 nM

Can you look up the measured IC50 of Cc1ccc(-n2cc(-n3c(C)c(Sc4cccc(C(=O)O)c4)c4ccc(Cl)c(F)c43)cn2)cc1 [Compound 3-32] for me?
< 300 nM

Can you look up the measured IC50 of Cc1c(Sc2cccc(C(=O)O)c2)c2ccc(Cl)c(F)c2n1-c1cn[nH]c1 [Compound 3-49] for me?
< 300 nM

Can you look up the measured IC50 of CCn1cc(-n2c(C)c(Sc3cccc(C(=O)O)c3)c3ccc(Cl)c(F)c32)cn1 [Compound 3-16] for me?
< 300 nM

Can you look up the measured IC50 of CCn1cc(-n2c(C)c(Sc3cc(F)cc(C(=O)O)c3)c3ccc(Cl)cc32)cn1 [Compound 1-129] for me?
< 300 nM

Can you look up the measured IC50 of Cc1c(Sc2cccc(C(=O)O)c2)c2ccc(Cl)cc2n1-c1cnn(C(C)C)c1 [Compound 1-44] for me?
< 300 nM

Can you look up the measured IC50 of CCn1cc(-n2c(C)c(Sc3cccc(C(=O)O)c3F)c3c(F)cc(Cl)cc32)cn1 [Compound 4-11] for me?
< 300 nM

Can you look up the measured IC50 of Cc1c(Sc2cccc(-c3nn[nH]n3)c2)c2ccc(Cl)cc2n1Cc1ccccc1 [Compound 2-9] for me?
> 1000 nM

Can you look up the measured IC50 of CCn1cc(-n2c(C)c(Sc3cccc(C(=O)NS(=O)(=O)c4ccccc4)c3)c3ccc(Cl)c(F)c32)cn1 [Compound 3-42] for me?
< 300 nM
